Each recorded value in this set is attributed to patent US20180185504A1.

Target: T1, macaca fascicularis (mf) PRLR.mmh (soluble monomeric monkey PRLR) (Macaca fascicularis)
T1 construct: called soluble monomeric PRLR protein
T1 chain: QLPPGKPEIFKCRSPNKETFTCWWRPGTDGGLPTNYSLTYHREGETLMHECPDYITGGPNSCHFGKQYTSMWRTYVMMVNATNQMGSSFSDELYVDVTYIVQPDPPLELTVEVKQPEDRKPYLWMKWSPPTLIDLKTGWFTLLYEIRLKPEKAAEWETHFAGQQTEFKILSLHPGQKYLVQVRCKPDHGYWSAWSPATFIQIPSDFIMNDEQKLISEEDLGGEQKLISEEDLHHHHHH
Experiment: SPR Biacore, 25 C, mAb capture
endpoint name: koff (s⁻¹)
Give the value in s⁻¹ but do not write s⁻¹ after it.

Sample H1H6800P (antibody, human IgG1, V domains shown, Human IgG1 Fc (H1H)) VH: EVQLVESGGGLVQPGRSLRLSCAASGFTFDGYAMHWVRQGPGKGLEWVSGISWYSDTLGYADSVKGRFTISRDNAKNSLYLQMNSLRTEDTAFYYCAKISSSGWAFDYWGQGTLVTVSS VL: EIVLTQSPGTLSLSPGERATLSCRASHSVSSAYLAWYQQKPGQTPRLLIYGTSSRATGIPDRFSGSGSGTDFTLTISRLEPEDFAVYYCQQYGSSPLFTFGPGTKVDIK — what was its koff?
0.00038

Here is the next binder: H1H6975N (antibody, human IgG1, V domains shown, Tested with human IgG1 Fc (H1H); also called H2M6975N) VH: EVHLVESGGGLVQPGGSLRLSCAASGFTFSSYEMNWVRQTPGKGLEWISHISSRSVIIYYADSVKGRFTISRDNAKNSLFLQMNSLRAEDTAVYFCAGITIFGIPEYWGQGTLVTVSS VL: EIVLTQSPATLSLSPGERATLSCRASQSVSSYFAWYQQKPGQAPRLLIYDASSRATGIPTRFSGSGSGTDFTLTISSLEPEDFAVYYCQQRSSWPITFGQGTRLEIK
0.000131

Here is the next binder: H1H6762P (antibody, human IgG1, V domains shown, Human IgG1 Fc (H1H)) VH: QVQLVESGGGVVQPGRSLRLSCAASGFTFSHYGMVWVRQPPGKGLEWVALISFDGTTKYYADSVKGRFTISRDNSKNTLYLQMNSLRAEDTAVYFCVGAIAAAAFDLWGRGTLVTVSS VL: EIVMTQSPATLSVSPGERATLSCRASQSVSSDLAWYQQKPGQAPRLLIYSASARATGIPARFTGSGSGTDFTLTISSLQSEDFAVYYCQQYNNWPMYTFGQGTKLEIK
0.000208

Here is the next binder: H1H6801P (antibody, human IgG1, V domains shown, Human IgG1 Fc (H1H)) VH: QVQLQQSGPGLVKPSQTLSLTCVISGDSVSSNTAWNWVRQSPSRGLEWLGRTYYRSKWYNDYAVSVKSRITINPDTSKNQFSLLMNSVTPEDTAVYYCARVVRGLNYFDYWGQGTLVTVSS VL: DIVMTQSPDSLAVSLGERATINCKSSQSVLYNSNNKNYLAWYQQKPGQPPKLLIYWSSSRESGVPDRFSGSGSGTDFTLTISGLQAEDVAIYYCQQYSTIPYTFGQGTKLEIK
0.00123

Here is the next binder: H1H6953N (antibody, human IgG1, V domains shown, Tested with human IgG1 Fc (H1H); also called H1M6953N) VH: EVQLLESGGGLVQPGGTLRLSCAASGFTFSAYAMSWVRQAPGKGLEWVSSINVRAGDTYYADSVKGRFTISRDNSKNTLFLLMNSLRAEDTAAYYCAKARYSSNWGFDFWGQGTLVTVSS VL: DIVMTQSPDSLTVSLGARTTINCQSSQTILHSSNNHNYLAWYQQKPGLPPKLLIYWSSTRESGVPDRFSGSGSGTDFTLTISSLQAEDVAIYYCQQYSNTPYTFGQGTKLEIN
0.000319

Now for another entry.
Sample H1H6976N (antibody, human IgG1, V domains shown, Tested with human IgG1 Fc (H1H); also called H2M6976N) VH: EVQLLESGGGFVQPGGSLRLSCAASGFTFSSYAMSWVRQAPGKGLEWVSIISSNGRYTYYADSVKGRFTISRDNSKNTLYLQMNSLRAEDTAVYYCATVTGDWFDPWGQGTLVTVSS VL: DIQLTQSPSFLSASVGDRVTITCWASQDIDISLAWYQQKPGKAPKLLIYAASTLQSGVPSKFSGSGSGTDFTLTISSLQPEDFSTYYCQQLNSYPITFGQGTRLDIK — what was its koff?
0.000814
